Property: Relative MGMT activity (%); scope: individual molecules
- Test system: U251 human glioblastoma cell line
- PROTOCOL NOTES: in vitro FM-HCR assay of MGMT activity (mPlum O^6MeG reporter plasmid)
- Format: cell-based
- COND: MGMT activity (a.u.) in O^6BG divided by DMSO x 100; higher values indicate resistance
Note: unit % is implicit; provide only the numeric part.

Which Relative MGMT activity (%) is reported for this molecule? M134V: MGMT polypeptide with mutation M134V (protein) MDKDCEMKRTTLDSPLGKLELSGCEQGLHEIKLLGKGTSAADAVEVPAPAAVLGGPEPLMQCTAWLNAYFHQPEAIEEFPVPALHHPVFQQESFTRQVLWKLLKVVKFGEVISYQQLAALAGNPKAARAVGGAVRGNPVPILIPCHRVVCSSGAVGNYSGGLAVKEWLLAHEGHRLGKPGLGGSSGLAGAWLKGAGATSGSPPAGRN
26.9

Please do the same for M134F: MGMT polypeptide with mutation M134F (protein) MDKDCEMKRTTLDSPLGKLELSGCEQGLHEIKLLGKGTSAADAVEVPAPAAVLGGPEPLMQCTAWLNAYFHQPEAIEEFPVPALHHPVFQQESFTRQVLWKLLKVVKFGEVISYQQLAALAGNPKAARAVGGAFRGNPVPILIPCHRVVCSSGAVGNYSGGLAVKEWLLAHEGHRLGKPGLGGSSGLAGAWLKGAGATSGSPPAGRN as well.
52.9

Same question, M134Y: MGMT polypeptide with mutation M134Y (protein) MDKDCEMKRTTLDSPLGKLELSGCEQGLHEIKLLGKGTSAADAVEVPAPAAVLGGPEPLMQCTAWLNAYFHQPEAIEEFPVPALHHPVFQQESFTRQVLWKLLKVVKFGEVISYQQLAALAGNPKAARAVGGAYRGNPVPILIPCHRVVCSSGAVGNYSGGLAVKEWLLAHEGHRLGKPGLGGSSGLAGAWLKGAGATSGSPPAGRN this time
101.6
